- System: E. coli TESEC Mtb Asd
- method_summary: growth (OD600 after 10 h); higher = more growth (less inhibition)
- assay_conditions: arabinose induction (level): Low; compound 0.1 mM; raw OD600 reference: median of DMSO wells 0.417, cell-free background 0.041
Class key for growth values: b0 (below 0.2), b1 (0.2 to below 0.4), b2 (0.4 or more)

// known answers, use as guide
IN: Quick check: band for CC(=O)Nc1ccc(OCC(O)CNC(C)C)cc1 (configuration not stated) [Practolol]
OUT: b2

IN: Quick check: band for CC(=O)O[C@]1(C(C)=O)CC[C@H]2[C@@H]3C=C(Cl)C4=CC(=O)CC[C@]4(C)[C@H]3CC[C@@]21C [Chlormadinone acetate]
OUT: b0

IN: Quick check: band for COC(=O)N/N=C/c1c[n+]([O-])c2ccccc2[n+]1[O-] [Carbadox]
OUT: b0

IN: Quick check: band for CSc1nc2cc(Cl)c(Oc3cccc(Cl)c3Cl)cc2[nH]1 [Triclabendazole]
OUT: b0

IN: Quick check: band for CCCOc1ccc2[nH]c(NC(=O)OC)nc2c1 [Oxibendazol]
OUT: b2

IN: Quick check: band for COc1ccc2c(c1)C(=O)N(CCc1ccc(S(=O)(=O)NC(=O)NC3CCCCC3)cc1)C(=O)C2(C)C [Gliquidone]
OUT: b0

Next:
IN: Quick check: band for C[C@H](CCC(=O)O)[C@H]1CC[C@H]2[C@@H]3[C@H](O)C[C@@H]4C[C@H](O)CC[C@]4(C)[C@H]3CC[C@]12C [Chenodiol]
OUT: b1

IN: Quick check: band for CCN(CC)CCNc1ccc(CO)c2sc3ccccc3c(=O)c12 [Hycanthone]
OUT: b0

====

Could you please report measured growth for the items listed next?
- Test system: E. coli TESEC Mtb Alr
- method_summary: growth (OD600 after 10 h); higher = more growth (less inhibition)
- assay_conditions: arabinose 10000000 nM; compound 0.1 mM; raw OD600 reference: median of DMSO wells […], cell-free background 0.052
Where a name gives a salt, the structure may show the parent alone.
Answers are plain numbers.

Solved entries:
IN: Sample O=C(O)Cc1ccccc1Nc1c(Cl)cccc1Cl [Diclofenac sodium] — what was its growth?
OUT: 0.214

IN: Sample c1ccc2c(CC3=NCCN3)cccc2c1 [Naphazoline hydrochloride] — what was its growth?
OUT: 0.323

IN: Sample CCCCCCNC(=O)n1cc(F)c(=O)[nH]c1=O [Carmofur] — what was its growth?
OUT: 0.134

IN: Sample CCC1=C(C)CN(C(=O)NCCc2ccc(S(=O)(=O)NC(=O)N[C@H]3CC[C@H](C)CC3)cc2)C1=O [Glimepiride] — what was its growth?
OUT: 0.193

IN: Sample CC[C@H](c1ccc(O)cc1)[C@@H](CC)c1ccc(O)cc1 [Hexestrol] — what was its growth?
OUT: 0.0517

IN: Sample NC1CCN(c2nc3c(cc2F)c(=O)c(C(=O)O)cn3-c2ccc(F)cc2F)C1 (configuration not stated) [Tosufloxacin hydrochloride] — what was its growth?
OUT: 0.0578

IN: Sample S=c1[nH]cnc2nc[nH]c12 [Mercaptopurine] — what was its growth?
OUT: 0.113

IN: Sample CN(C)CCCO[C@@H]1[C@H]2OC(C)(C)O[C@H]2O[C@@H]1[C@H](O)CO [Amiprilose hydrochloride] — what was its growth?
OUT: 0.337

Below is a list of molecules. For each, state its recorded growth.
1. CC(=O)Oc1ccccc1C(=O)O [Acetylsalicylic acid]
2. CN1CCN(CCCN2c3ccccc3Sc3ccc(S(=O)(=O)N(C)C)cc32)CC1 [Thioproperazine dimesylate]
3. O=S(=O)(O)c1cc(O)ccc1O [Ethamsylate]
4. C[C@@](Cc1ccc(O)c(O)c1)(NN)C(=O)O [Carbidopa]
5. CNS(=O)(=O)Cc1ccc2[nH]cc(CCN(C)C)c2c1 [Sumatriptan succinate]
6. CCOC(=O)NNc1nncc2ccccc12 [Todralazine hydrochloride]
7. COc1cc(N)c(Cl)cc1C(=O)NC1CCN(CCCOc2ccc(F)cc2)CC1OC (configuration not stated) [Cisapride]

OUT:
1: 0.334; 2: 0.232; 3: 0.344; 4: 0.257; 5: 0.353; 6: 0.271; 7: 0.458
